System: male, Sprague-Dawley rats
Assay: Oral delivery of insulin in rats: change in whole blood glucose after insulin plus delivery agent
Type: in vivo, rat
Conditions: time 0, insulin/delivery agent = 0.5 mg/200 mg per kg, oral gavage
measurement type: Percent change in whole blood glucose from baseline (negative = reduction) (%)
Numeric answer only, unit % assumed.

Below, each entry is followed by its recorded Percent change in whole blood glucose from baseline (negative = reduction) result.
1) O=C(O)c1ccc(OCC2CC2)cc1 [Compound 4, 4-(cyclopropylmethoxy)benzoic acid]	1.72
2) COc1cc(CC(=O)O)ccc1OCC1CC1 [Compound 8]	18.75
3) O=C(O)c1ccccc1OCC1CCCCC1 [Compound 11, 2-(cyclohexylmethoxy)benzoic acid]	−1.27

(Q) May I ask what Percent change in whole blood glucose from baseline (negative = reduction) has been recorded for O=C(O)c1ccccc1OCC1CC1 [Compound 9, 2-(cyclopropylmethoxy)benzoic acid] ?
(A) −1.59

(Q) Would you mind doing O=C(O)Cc1ccc(OCC2CC2)cc1 [Compound 5] as well?
(A) −1.91
